Tested on: Plasmodium berghei
experiment: Screen against P. berghei liver stage (PbLuc), transformed with Luciferase, at 2uM
Format: functional, HepG2
condition: tested at 2 uM
Among all 68,000 compounds or so, about 2,700 (4%) showed an effect of 50% or more. The sample as a whole holds a higher share of strong results than the screen did.
attribute.measured: INHIBITION (%)
Field: numeric (%). Do not append units.

Prompt: What does the data say about its INHIBITION? Entry: "CN(CC(N)=O)Cc1ccc(F)cc1Cl"
Response: -6.61

Prompt: What does the data say about its INHIBITION? Entry: O=C(C1CCCO1)N1CCC2(CC1)COCCN(Cc1cccnc1)C2 (configuration not stated)
Response: 55.49

Prompt: What does the data say about its INHIBITION? Entry: "CSc1ccc(CNc2ccccc2CN2CCC(O)CC2)cc1"
Response: 50.03

Prompt: What does the data say about its INHIBITION? Entry: "CCc1ccc(CNc2ccccc2CN2CCC(O)CC2)o1"
Response: -10.29

Prompt: What does the data say about its INHIBITION? Entry: "CN(Cc1ccc(Cl)s1)C(=O)Cn1nc(-c2ccc(F)cc2)oc1=O"
Response: 14.82

Prompt: What does the data say about its INHIBITION? Entry: "O=C(NCCNCc1cccc2c1OCCCO2)C1CCCC1"
Response: 77.72

Prompt: What does the data say about its INHIBITION? Entry: "COCC(=O)N1CCC2(CCN(Cc3cccnc3)C2)CC1"
Response: 51.81

Prompt: What does the data say about its INHIBITION? Entry: "O=C(CCNCc1cccc2c1OCCCO2)NC1CCCC1"
Response: -42.54

Prompt: What does the data say about its INHIBITION? Entry: CC(C)c1cc(C(=O)N2CCC3(CCc4ccccc4C(=O)N3)C2)on1 (configuration not stated)
Response: 9.9

Prompt: What does the data say about its INHIBITION? Entry: "Cc1nnc(SCCC(=O)N(C)Cc2ccc(F)cc2F)[nH]1"
Response: 10.05

Prompt: What does the data say about its INHIBITION? Entry: O=C([C@@H]1CCCO1)N1CCOCC2(CCN(Cc3cccnc3)C2)C1 (some centres not stated)
Response: -31.3

Prompt: What does the data say about its INHIBITION? Entry: "OCc1ccc(CNc2ccccc2CN2CCC(O)CC2)o1"
Response: 5.02

====

System: Plasmodium berghei
experiment: Screen against P. berghei liver stage (PbLuc), transformed with Luciferase, at 2uM
Assay type: functional, HepG2
condition: tested at 2 uM
The whole screen tested about 68,000 compounds, of which about 2,700 (4%) showed an effect of 50% or more. The list comes from a sample in which strong results are over-represented; it also holds close analogues and randomly drawn compounds.
The following ranges of INHIBITION define the classes used here: range 1 = under -20%, range 2 = from -20% up to 20%, range 3 = 20% and over

Prompt: Place this compound in its band: "CC(=O)c1cccc(NC(=O)CCn2nc(-c3cccs3)oc2=O)c1"
Response: range 2

Prompt: Place this compound in its band: "Cc1cc(C)n(NC(=O)c2ccc(Cl)cc2Cl)c(=O)c1"
Response: range 2

Prompt: Place this compound in its band: Cc1nccn1CC1CCCN1S(=O)(=O)Cc1ccc(F)cc1 (centres undefined)
Response: range 1

Prompt: Place this compound in its band: COc1cc(C2c3c(n[nH]c3C)N=C3COC(=O)C32)cc2c1OCO2 (centres undefined)
Response: range 1

Prompt: Place this compound in its band: Cc1cc(Cc2ccccc2F)cc(C2CCCNC2)n1 (centres undefined)
Response: range 2

Prompt: Place this compound in its band: CCCn1ncc(C(=O)NC(C)c2c(C)nn(CC)c2C)c1C (centres undefined)
Response: range 1

Prompt: Place this compound in its band: "Cn1cc(CN2C[C@H]3CCC[C@@]3(COc3ccccn3)C2)cn1"
Response: range 2

Prompt: Place this compound in its band: CCn1nnc2c1C(COCCN(C)C)CN(S(C)(=O)=O)C2 (centres undefined)
Response: range 3

Prompt: Place this compound in its band: Cc1nccn1CC1CCCN1S(=O)(=O)Cc1ccccc1 (centres undefined)
Response: range 2

Prompt: Place this compound in its band: Cc1nccn1CC1CCCN1S(=O)(=O)Cc1ccon1 (centres undefined)
Response: range 3

Prompt: Place this compound in its band: Cc1ccc(-c2cn[nH]c2C2CCCN(c3ncccn3)C2)cc1 (centres undefined)
Response: range 2

Prompt: Place this compound in its band: "O=C(c1cncs1)N1CCC(Cc2cnc3[nH]ccc3c2)CC1"
Response: range 2

Prompt: Place this compound in its band: CCCn1cc(C(=O)NC(C)c2c(C)nn(CC)c2C)c(C)n1 (centres undefined)
Response: range 3

Prompt: Place this compound in its band: Cc1ccc(CN2CCN(c3ncccc3Cl)CC2CCO)cc1 (centres undefined)
Response: range 1

Prompt: Place this compound in its band: "CNC(=O)c1cccc(NC(=O)Cn2nc(-c3cccs3)oc2=O)c1"
Response: range 2

Prompt: Place this compound in its band: O=c1oc(-c2cccs2)nn1CC(O)c1ccccc1 (centres undefined)
Response: range 3

Prompt: Place this compound in its band: "O=C(c1c[nH]c(=O)c(Cl)c1)N1CCc2ccccc2C1"
Response: range 2

Prompt: Place this compound in its band: Cc1cc(Cc2ccccc2)cc(C2CCCNC2)n1 (centres undefined)
Response: range 1

Prompt: Place this compound in its band: "O=C(c1ccc(O)nc1)N1CCN(C(=O)c2ccc(F)cc2F)CC1"
Response: range 2

Prompt: Place this compound in its band: "O=C(c1ccc(O)nc1)N1CCN(C(=O)c2ccc(F)c(F)c2)CC1"
Response: range 2

Prompt: Place this compound in its band: CN(CCc1cn[nH]c1)C(=O)C1CC(=O)N(Cc2ccccn2)C1 (centres undefined)
Response: range 3

Prompt: Place this compound in its band: O=c1oc(-c2cccs2)nn1CC(O)c1ccc(F)cc1 (centres undefined)
Response: range 3

Prompt: Place this compound in its band: CCn1nc(C)c(C(C)NC(=O)c2cccc(NCC(=O)O)c2)c1C (centres undefined)
Response: range 2

====

System: Plasmodium berghei
experiment: Screen against P. berghei liver stage (PbLuc), transformed with Luciferase, at 2uM
Format: functional, HepG2
condition: tested at 2 uM
In all, about 68,000 compounds went through this assay and about 2,700 (4%) showed an effect of 50% or more. The list comes from a sample in which strong results are over-represented; it also holds close analogues and randomly drawn compounds.
attribute.measured: INHIBITION

Prompt: What does the data say about its INHIBITION? Entry: COc1ccc(C(CC(=O)O)NC(=O)CCc2cccs2)cc1OC (configuration not stated)
Response: 36.38%

Prompt: What does the data say about its INHIBITION? Entry: "Clc1cnc(NCc2ccccc2N2CCOCC2)nc1"
Response: -2.35%

Prompt: What does the data say about its INHIBITION? Entry: "Cn1cc(N2CC3(CCN(Cc4cccnc4)CC3)OCC2=O)cn1"
Response: 54.44%

Prompt: What does the data say about its INHIBITION? Entry: "O=C1COC2(CCN(Cc3cccs3)CC2)CN1c1ccsc1"
Response: 55.7%

Prompt: What does the data say about its INHIBITION? Entry: "CN(C)CCNC(=O)c1ccc(OC2CCN(C(=O)CO)CC2)c(Cl)c1"
Response: 14.63%

Prompt: What does the data say about its INHIBITION? Entry: "Cc1ccc2cccc(Oc3nc(C)c(C(=O)O)s3)c2n1"
Response: 27.11%

Prompt: What does the data say about its INHIBITION? Entry: "CSc1ccc(NC(=O)Cc2cccc(O)c2)nc1"
Response: 55.36%

Prompt: What does the data say about its INHIBITION? Entry: "CCC(=O)N1CCC(Oc2ccc(C(=O)NCCN(C)C)cc2Cl)CC1"
Response: 51.96%

Prompt: What does the data say about its INHIBITION? Entry: "CCOc1cccc(NC(=O)Cc2cccc(O)c2)n1"
Response: 0.51%

Prompt: What does the data say about its INHIBITION? Entry: NCC1CCC2(CCN(C(=O)c3ccccn3)CC2)CO1 (configuration not stated)
Response: -5.44%

Prompt: What does the data say about its INHIBITION? Entry: "O=C1COC2(CCN(Cc3cccs3)CC2)CN1c1cncnc1"
Response: 25.58%

Prompt: What does the data say about its INHIBITION? Entry: "Cn1ccc(NC(=O)Cc2cccc(F)c2)n1"
Response: 19.89%

====

Would you mind telling me the reported INHIBITION of each entry?
Test system: Plasmodium berghei
experiment: Screen against P. berghei liver stage (PbLuc), transformed with Luciferase, at 2uM
Format: functional, HepG2
condition: tested at 2 uM
Screen size: about 68,000 compounds; about 2,700 (4%) showed an effect of 50% or more. The sample as a whole holds a higher share of strong results than the screen did.
Reply with the number and its unit after it.

Prompt: What does the data say about its INHIBITION? Entry: O=C1NCCCCC1Sc1nnc(C2CC2)n1C1CC1 (centres undefined)
Response: 58.24%

Prompt: What does the data say about its INHIBITION? Entry: CN(CC1Cc2ccccc2CN1C)c1nc(N)nc2c1CCNCC2 (centres undefined)
Response: 52.98%

Prompt: What does the data say about its INHIBITION? Entry: CN(C(=O)c1cccnc1)C1CCCN(CCc2ccccc2)C1 (centres undefined)
Response: 52.08%

Prompt: What does the data say about its INHIBITION? Entry: CN(C(=O)CC1=CCCCC1)C1CCCN(CCc2ccccc2)C1 (centres undefined)
Response: 73.01%

Prompt: What does the data say about its INHIBITION? Entry: Cc1nc(-c2cc(Cl)c3c(c2)CC(CN)O3)c[nH]1 (centres undefined)
Response: 74.44%

Prompt: What does the data say about its INHIBITION? Entry: "O=C(O)[C@@H]1CN(C(=O)c2ccc(O)cc2)C[C@H]1c1cccc(F)c1"
Response: 38.65%

Prompt: What does the data say about its INHIBITION? Entry: "O=C(CCn1ccc2cc(Br)ccc21)NCc1ccc(C(=O)O)cc1"
Response: -4.69%

Prompt: What does the data say about its INHIBITION? Entry: Cc1nc2c(c(N(C)CC3Cc4ccccc4CN3C)n1)CCNCC2 (centres undefined)
Response: 57.75%

Prompt: What does the data say about its INHIBITION? Entry: "Nc1ncc(C(=O)N2CCC3(CCCO3)CC2)c(-c2ccccc2)n1"
Response: 14.83%

Prompt: What does the data say about its INHIBITION? Entry: "Nc1ncc(C(=O)N2CCC(O)(CO)CC2)c(-c2ccccc2)n1"
Response: 32.04%

Prompt: What does the data say about its INHIBITION? Entry: Cc1nc2c(c(NCC3Cc4ccccc4CN3C)n1)CCNCC2 (centres undefined)
Response: 43.44%

Prompt: What does the data say about its INHIBITION? Entry: CN(C(=O)CC1=CCCCC1)C1CCCN(C2Cc3ccccc3C2)C1 (centres undefined)
Response: -12.75%

Prompt: What does the data say about its INHIBITION? Entry: "CCCS(=O)(=O)NC(=O)c1cc(C)n(-c2ccccc2)n1"
Response: -1.29%

Prompt: What does the data say about its INHIBITION? Entry: "Cc1ccc(CNC(=O)CCNS(C)(=O)=O)cc1"
Response: 13.36%

Prompt: What does the data say about its INHIBITION? Entry: CN(C(=O)CCc1ccncc1)C1CCCN(CCc2ccccc2)C1 (centres undefined)
Response: 42.17%

Prompt: What does the data say about its INHIBITION? Entry: CC(C)c1ccc(C(N)c2cccs2)cc1 (centres undefined)
Response: -61.99%

Prompt: What does the data say about its INHIBITION? Entry: OC(COCc1ccccc1)CSc1nnc2ccccn12 (centres undefined)
Response: 2.9%

Prompt: What does the data say about its INHIBITION? Entry: OC(COCc1cccs1)CSc1nnc2ccccn12 (centres undefined)
Response: 45.82%

Prompt: What does the data say about its INHIBITION? Entry: "CCOC(=O)C1CCN(C(=O)Cn2ccc3cc(Br)ccc32)CC1"
Response: 21.14%

Prompt: What does the data say about its INHIBITION? Entry: OC(COCc1ccco1)CSc1nnc2ccccn12 (centres undefined)
Response: 76.82%

Prompt: What does the data say about its INHIBITION? Entry: COCC1CN(CC2CC2)Cc2nn(CC3CC3)cc21 (centres undefined)
Response: 11.34%

Prompt: What does the data say about its INHIBITION? Entry: "CC(C)[C@@H]1CN(CC(=O)NCc2ccco2)C[C@H]1NS(=O)(=O)N(C)C"
Response: -30.53%

Prompt: What does the data say about its INHIBITION? Entry: CSc1ccccc1C(=O)N(C)C1CCCN(CCc2ccccc2)C1 (centres undefined)
Response: -1.89%

Prompt: What does the data say about its INHIBITION? Entry: Nc1ncc(C(=O)N2CCCC(N)CC2)c(-c2ccccc2)n1 (centres undefined)
Response: 50.91%
